The reader will find reported pKd values listed item by item below.
SUBJECT OF TEST: T1, biotinylated human DLL3 protein expressed as a human IgG1 fusion protein (human, UniProt Q9NYJ7 27-492, limits assumed, biotinylated)
T1 sequence: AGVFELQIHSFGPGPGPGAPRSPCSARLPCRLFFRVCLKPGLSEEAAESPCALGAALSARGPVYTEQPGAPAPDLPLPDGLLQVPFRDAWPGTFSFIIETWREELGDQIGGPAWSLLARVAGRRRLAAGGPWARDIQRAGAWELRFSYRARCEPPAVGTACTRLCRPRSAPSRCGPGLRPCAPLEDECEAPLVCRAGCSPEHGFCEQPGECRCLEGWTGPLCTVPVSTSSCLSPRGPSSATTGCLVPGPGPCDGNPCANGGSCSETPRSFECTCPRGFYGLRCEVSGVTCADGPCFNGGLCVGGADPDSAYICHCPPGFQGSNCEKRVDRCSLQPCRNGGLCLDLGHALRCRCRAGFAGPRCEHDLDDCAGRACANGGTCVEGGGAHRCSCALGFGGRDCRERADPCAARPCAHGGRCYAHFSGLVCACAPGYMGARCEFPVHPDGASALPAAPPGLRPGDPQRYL
EXPERIMENT SUMMARY: Octet BLI, single 50 nM
pKd: −log10 of the molar value.
PROPERTY LABEL: pKd

1) 1A05 anti-DLL3 trispecific protein (other, not shown: linker 1808, anti-albumin sdAb, linker 1808, anti-CD3 fragment, His6 1819) EVQLVESGGGLVQPGGSLTLSCVASGSPSSINAMGWYRRAPGKQRELSAGISSDGSKVYADSVKGRFTISRDNAKNSVYLQMNSLRAEDTAVYYCYYFRTVRGSSMSYWGQGTLVTVSS | 8.40
2) 4D05 anti-DLL3 trispecific protein (other, not shown: linker 1808, anti-albumin sdAb, linker 1808, anti-CD3 fragment, His6 1819) EVQLVESGGGLVQPGGSLTLSCAASGSSSSFLSMAWYRQAPGKKRELVAGISADGSTVYIDSVKGRFTISRDNAKNSVYLQMNSLRAEDTAVYYCYAYRWTTRRTYWGQGTLVTVSS | 8.19
3) 4H06 anti-DLL3 trispecific protein (other, not shown: linker 1808, anti-albumin sdAb, linker 1808, anti-CD3 fragment, His6 1819) EVQLVESGGGLVQPGGSLTLSCAASGRSVSFLSMAWYRQAPGKKRELVAGISADGSTIYIDSVKGRFTISRDNAKNSVYLQMNSLRAEDTAVYYCYAYRWTTRYTYWGQGTLVTVSS | 7.74
4) 4A010 anti-DLL3 trispecific protein (other, not shown: linker 1808, anti-albumin sdAb, linker 1808, anti-CD3 fragment, His6 1819) EVQLVESGGGLVQPGGSLTLSCAASGSSVRFLSMAWYRQAPGKKRELVAGISADGSTVYIDSVKGRFTISRDNAKNSVYLQMNSLRAEDTAVYYCYAYRWTTRYKYWGQGTLVTVSS | 8.64
5) 3C03 anti-DLL3 trispecific protein (other, not shown: linker 1808, anti-albumin sdAb, linker 1808, anti-CD3 fragment, His6 1819) EVQLVESGGGLVQPGGSLTLSCAASGSSVRFLSMAWYRQAPGKKRELVAGISRDGSTVYIDSVKGRFTISRDNAKNSVYLQMNSLRAEDTAVYYCYAYRWTTRGTYWGQGTLVTVSS | 8.31
